Test system: RPMI-8226 leukemia
protocol: NCI tumour cell line growth inhibition, 48 h

# compound, tested target, unit, lt gt eq, TGI
records = [
    ("CC(C)c1cc2c(cc1S(=O)(=O)O)[C@@]1(C)CCC[C@@](C)(C(=O)O)C1CC2 (some centres undefined)", "RPMI-8226 leukemia", "µM", ">", 100),
    ("COC(=O)[C@@H](O)[C@](O)(CCC(C)C)C(=O)O[C@@H]1C(OC)=C[C@]23CCCN2CCc2cc4c(cc2[C@H]13)OCO4", "RPMI-8226 leukemia", "µM", "=", 6.06),
    ("O=C(N/N=C/c1ccc(Cl)cc1)c1c(Cl)c(Cl)c(Cl)c(Cl)c1-c1nc2ccccc2[nH]1", "RPMI-8226 leukemia", "µM", ">", 100),
    ("C/C(=N/Nc1ccc([N+](=O)[O-])cc1[N+](=O)[O-])C(CC(C(=O)NCc1ccccc1)/C(C)=N\\Nc1ccc([N+](=O)[O-])cc1[N+](=O)[O-])C(=O)NCc1ccccc1 (centres undefined)", "RPMI-8226 leukemia", "µM", "=", 44.8),
    ("CC(=O)OCCOCNC(=S)N/N=C(\\C)c1cnccn1", "RPMI-8226 leukemia", "µM", ">", 100),
    ("C[C@]12CCC3c4ccc(O)cc4CCC3C1CC[C@@]2(O)CNC(=O)/C=C/c1ccc(O)c(O)c1 (some centres undefined)", "RPMI-8226 leukemia", "µM", "=", 50.7),
    ("COc1ncc(/C=C2\\OC(=O)c3ccccc32)c(OC)n1", "RPMI-8226 leukemia", "µM", ">", 100),
    ("Cc1cccc(Cn2c3c(c4cc(O)ccc42)C(=O)c2ccccc2C3=O)c1", "RPMI-8226 leukemia", "µM", ">", 30.6),
    ("Nc1n[nH]c2cccc(C#Cc3cccc(C(=O)Nc4ccc(CN5CCOCC5)c(C(F)(F)F)c4)c3)c12", "RPMI-8226 leukemia", "µM", "=", 5.62),
]
